- System: ragweed (common ragweed, Ambrosia elatior)
- method: Test C postemergence, plant response rating
- Assay type: in vivo
- recorded-conditions: 62 g ai/ha, scale 0 to 100 (0 no effect, 100 complete control)
Fulfilled means recorded Ragweed plant response rating is 20 or above; Not fulfilled means it is below 20.

>>> category_label("CCCCC(=O)c1c(Oc2ncc(Cl)cn2)cccc1C(F)(F)F [Compound 130]")
"Fulfilled"
>>> category_label("FC(F)(F)CCCc1c(Br)cccc1Oc1ncc(Cl)cn1 [Compound 89]")
"Not fulfilled"
>>> category_label("N#Cc1cccc(Oc2ncc(Cl)cn2)c1CCCC(F)(F)F [Compound 72]")
"Fulfilled"
>>> category_label("N#CC(CCCC(F)(F)F)c1ccccc1Oc1ncc(Cl)cn1 (centres unmarked) [Compound 144]")
"Fulfilled"
>>> category_label("FC(F)(F)CCCCc1c(Cl)cccc1Oc1ncc(Cl)cn1 [Compound 137]")
"Fulfilled"

Measured values drawn from patent US11053204B2 for this set.
